// data source = ChEMBL document CHEMBL1157144

- Tested on: Streptococcus pneumoniae
- ASSAY: Antibacterial activity against ermB-inducible resistant Streptococcus pneumoniae after 20 hrs by agar dilution method
- Format: functional
MEASURE: MIC (µg/mL)
Answer format: numeric, µg/mL implied, no suffix.

CCC(=O)O[C@@H]1CC(=O)O[C@H](C)C[C@@H]2OC(=O)N(CCCCc3ccccc3)[C@@H]2/C=C/[C@H](OC(C)=O)[C@H](C)C[C@H](CC=O)[C@H](O[C@@H]2O[C@H](C)[C@@H](O[C@H]3C[C@@](C)(O)[C@@H](OC(=O)CC)[C@H](C)O3)[C@H](N(C)C)[C@H]2O)[C@H]1OC: 100

Next, consider the following molecule.
response.value for "CCC(=O)O[C@@H]1CC(=O)O[C@H](C)C[C@H](O)[C@H](N(C)CCCc2cccc3ccccc23)/C=C/[C@H](OC(C)=O)[C@H](C)C[C@H](CC=O)[C@H](O[C@@H]2O[C@H](C)[C@@H](O)[C@H](N(C)C)[C@H]2O)[C@H]1OC" (field: MIC) = 100

* * *

- Test system: Streptococcus pneumoniae
- ASSAY: Antibacterial activity against ermB-inducible resistant Streptococcus pneumoniae after 20 hrs by agar dilution method
- Assay type: functional
MEASURE: MIC

Use these answered entries as a reference point.
CCC(=O)O[C@@H]1CC(=O)O[C@H](C)C[C@H](O)[C@H](N(C)C)/C=C/[C@H](OC(C)=O)[C@H](C)C[C@H](CC=O)[C@H](O[C@@H]2O[C@H](C)[C@@H](O[C@H]3C[C@@](C)(O)[C@@H](OC(=O)CC)[C@H](C)O3)[C@H](N(C)C)[C@H]2O)[C@H]1OC: > 100 µg/mL
CCC(=O)O[C@@H]1CC(=O)O[C@H](C)C[C@H](O)[C@H](N(C)CCCc2ccccc2)/C=C/[C@H](OC(C)=O)[C@H](C)C[C@H](CC=O)[C@H](O[C@@H]2O[C@H](C)[C@@H](O)[C@H](N(C)C)[C@H]2O)[C@H]1OC: > 100 µg/mL
CCC(=O)O[C@@H]1CC(=O)O[C@H](C)C[C@H](O)[C@H](N(C)CCCc2cnc3ccccc3c2)/C=C/[C@H](OC(C)=O)[C@H](C)C[C@H](CC=O)[C@H](O[C@@H]2O[C@H](C)[C@@H](O)[C@H](N(C)C)[C@H]2O)[C@H]1OC: > 100 µg/mL

Next, consider the following compound.
response.value for "CC[C@H]1OC(=O)[C@H](C)[C@@H](O[C@H]2C[C@@](C)(OC)[C@@H](O)[C@H](C)O2)[C@H](C)[C@@H](O[C@@H]2O[C@H](C)C[C@H](N(C)C)[C@H]2O)[C@](C)(OC)C[C@@H](C)C(=O)[C@H](C)[C@@H](O)[C@]1(C)O" (field: MIC) = > 100 µg/mL

* * *

- System: Staphylococcus aureus
- ASSAY: Antibacterial activity against ermC-inducible resistant Staphylococcus aureus after 20 hrs by agar dilution method
- Assay type: functional
MEASURE: MIC (µg/mL)
Answer format: numeric, µg/mL implied, no suffix.

Use these answered entries as a reference point.
CCC(=O)O[C@@H]1CC(=O)O[C@H](C)C[C@H](O)[C@H](N(C)CCCc2ccncc2)/C=C/[C@H](OC(C)=O)[C@H](C)C[C@H](CC=O)[C@H](O[C@@H]2O[C@H](C)[C@@H](O)[C@H](N(C)C)[C@H]2O)[C@H]1OC: 1.56
CCC(=O)O[C@@H]1CC(=O)O[C@H](C)C[C@H](O)[C@H](N(C)CCCc2cnc3ccccc3c2)/C=C/[C@H](OC(C)=O)[C@H](C)C[C@H](CC=O)[C@H](O[C@@H]2O[C@H](C)[C@@H](O)[C@H](N(C)C)[C@H]2O)[C@H]1OC: 1.56
CCC(=O)O[C@@H]1CC(=O)O[C@H](C)C[C@H](O)[C@H](N(C)CCCc2cccc3ccccc23)/C=C/[C@H](OC(C)=O)[C@H](C)C[C@H](CC=O)[C@H](O[C@@H]2O[C@H](C)[C@@H](O[C@H]3C[C@@](C)(O)[C@@H](OC(=O)CC)[C@H](C)O3)[C@H](N(C)C)[C@H]2O)[C@H]1OC: 0.78
CCC(=O)O[C@@H]1CC(=O)O[C@H](C)C[C@@H]2OC(=O)N[C@@H]2/C=C/[C@H](OC(C)=O)[C@H](C)C[C@H](CC=O)[C@H](O[C@@H]2O[C@H](C)[C@@H](O[C@H]3C[C@@](C)(O)[C@@H](OC(=O)CC)[C@H](C)O3)[C@H](N(C)C)[C@H]2O)[C@H]1OC: 0.78

response.value for "CCC(=O)O[C@@H]1CC(=O)O[C@H](C)C[C@@H]2OC(=O)N(CCCc3ccccc3)[C@@H]2/C=C/[C@H](OC(C)=O)[C@H](C)C[C@H](CC=O)[C@H](O[C@@H]2O[C@H](C)[C@@H](O[C@H]3C[C@@](C)(O)[C@@H](OC(=O)CC)[C@H](C)O3)[C@H](N(C)C)[C@H]2O)[C@H]1OC" (field: MIC) = 0.78

response.value for "CCC(=O)O[C@@H]1CC(=O)O[C@H](C)C[C@H](O)[C@H](N(C)CCc2ccccc2)/C=C/[C@H](OC(C)=O)[C@H](C)C[C@H](CC=O)[C@H](O[C@@H]2O[C@H](C)[C@@H](O[C@H]3C[C@@](C)(O)[C@@H](OC(=O)CC)[C@H](C)O3)[C@H](N(C)C)[C@H]2O)[C@H]1OC" (field: MIC) = 0.39

response.value for "CCC(=O)O[C@@H]1CC(=O)O[C@H](C)C[C@H](O)[C@H](N(C)CCCCCc2ccccc2)/C=C/[C@H](OC(C)=O)[C@H](C)C[C@H](CC=O)[C@H](O[C@@H]2O[C@H](C)[C@@H](O[C@H]3C[C@@](C)(O)[C@@H](OC(=O)CC)[C@H](C)O3)[C@H](N(C)C)[C@H]2O)[C@H]1OC" (field: MIC) = 0.39

response.value for "CCC(=O)O[C@@H]1CC(=O)O[C@H](C)C[C@H](O)[C@H](N(C)CCCc2ccncc2)/C=C/[C@H](OC(C)=O)[C@H](C)C[C@H](CC=O)[C@H](O[C@@H]2O[C@H](C)[C@@H](O[C@H]3C[C@@](C)(O)[C@@H](OC(=O)CC)[C@H](C)O3)[C@H](N(C)C)[C@H]2O)[C@H]1OC" (field: MIC) = 0.39

response.value for "CCC(=O)O[C@@H]1CC(=O)O[C@H](C)C[C@@H]2OC(=O)N(CCc3ccccc3)[C@@H]2/C=C/[C@H](OC(C)=O)[C@H](C)C[C@H](CC=O)[C@H](O[C@@H]2O[C@H](C)[C@@H](O[C@H]3C[C@@](C)(O)[C@@H](OC(=O)CC)[C@H](C)O3)[C@H](N(C)C)[C@H]2O)[C@H]1OC" (field: MIC) = 1.56

response.value for "CCC(=O)O[C@@H]1CC(=O)O[C@H](C)C[C@H](O)[C@H](N(C)CCCc2ccnc3ccccc23)/C=C/[C@H](OC(C)=O)[C@H](C)C[C@H](CC=O)[C@H](O[C@@H]2O[C@H](C)[C@@H](O[C@H]3C[C@@](C)(O)[C@@H](OC(=O)CC)[C@H](C)O3)[C@H](N(C)C)[C@H]2O)[C@H]1OC" (field: MIC) = 0.2

response.value for "CCC(=O)O[C@@H]1CC(=O)O[C@H](C)C[C@H](O)[C@H](N(C)CCCCc2ccccc2)/C=C/[C@H](OC(C)=O)[C@H](C)C[C@H](CC=O)[C@H](O[C@@H]2O[C@H](C)[C@@H](O[C@H]3C[C@@](C)(O)[C@@H](OC(=O)CC)[C@H](C)O3)[C@H](N(C)C)[C@H]2O)[C@H]1OC" (field: MIC) = 0.78

response.value for "CCC(=O)O[C@@H]1CC(=O)O[C@H](C)C[C@H](O)[C@H](N(C)CCCCCCCc2ccccc2)/C=C/[C@H](OC(C)=O)[C@H](C)C[C@H](CC=O)[C@H](O[C@@H]2O[C@H](C)[C@@H](O[C@H]3C[C@@](C)(O)[C@@H](OC(=O)CC)[C@H](C)O3)[C@H](N(C)C)[C@H]2O)[C@H]1OC" (field: MIC) = 1.56

response.value for "CCC(=O)O[C@@H]1CC(=O)O[C@H](C)C/C=C/C=C/[C@H](OC(C)=O)[C@H](C)C[C@H](CC=O)[C@H](O[C@@H]2O[C@H](C)[C@@H](O[C@H]3C[C@@](C)(OC(C)=O)[C@@H](OC(=O)CC)[C@H](C)O3)[C@H](N(C)C)[C@H]2O)[C@H]1OC" (field: MIC) = 0.78

* * *

The entries below come with measured MIC values attached.
- Tested on: Streptococcus pyogenes
- ASSAY: Antibacterial activity against standard Streptococcus pyogenes after 20 hrs by agar dilution method
- Format: functional
Answer format: numeric, µg/mL implied, no suffix.

CCC(=O)O[C@@H]1CC(=O)O[C@H](C)C[C@H](O)[C@H](N(C)CCCCCCCc2ccccc2)/C=C/[C@H](OC(C)=O)[C@H](C)C[C@H](CC=O)[C@H](O[C@@H]2O[C@H](C)[C@@H](O[C@H]3C[C@@](C)(O)[C@@H](OC(=O)CC)[C@H](C)O3)[C@H](N(C)C)[C@H]2O)[C@H]1OC: 0.39

response.value for "CCC(=O)O[C@@H]1CC(=O)O[C@H](C)C[C@H](O)[C@H](N(C)Cc2ccccc2)/C=C/[C@H](OC(C)=O)[C@H](C)C[C@H](CC=O)[C@H](O[C@@H]2O[C@H](C)[C@@H](O[C@H]3C[C@@](C)(O)[C@@H](OC(=O)CC)[C@H](C)O3)[C@H](N(C)C)[C@H]2O)[C@H]1OC" (field: MIC) = 0.1
